Assay: Apparent permeability in MDCK-MDR1 cells
Assay type: ADME, cell-based, Canis lupus familiaris
Conditions: dog
Measurement type: Papp (×10⁻⁶ cm/s)
Numbers only here, please. The scale is ×10⁻⁶ cm/s.

Q. If you can, please state the reported Papp value of `Cc1c(F)c(Nc2ccc(-c3cn(C)cn3)cn2)cc2c1ncn2CC1CC1` .
A. 47

----------
Experiment: Volume of distribution at steady state in rat at […], iv
Format: ADME, organism-based
Details: in vivo, dose 0.44 mg/kg, read-out: Vdss
Measurement type: Vd (L/kg)
Numbers only here, please. The scale is L/kg.

Q. If you can, please state the reported Vd value of `Cc1c(F)c(Nc2ccc(-c3cn(C)cn3)cn2)cc2c1ncn2CC1CC1` .
A. 1.7
